Source: patent US20060167001A1

Biological target: PDE4B2 (Homo sapiens)
Construct: made in house; host or cells: baculovirus, SF21 insect cells (virus made in SF9); 1000 x g supernatant of the homogenate
Sequence (Q07343 1-564 isoform Q07343-2): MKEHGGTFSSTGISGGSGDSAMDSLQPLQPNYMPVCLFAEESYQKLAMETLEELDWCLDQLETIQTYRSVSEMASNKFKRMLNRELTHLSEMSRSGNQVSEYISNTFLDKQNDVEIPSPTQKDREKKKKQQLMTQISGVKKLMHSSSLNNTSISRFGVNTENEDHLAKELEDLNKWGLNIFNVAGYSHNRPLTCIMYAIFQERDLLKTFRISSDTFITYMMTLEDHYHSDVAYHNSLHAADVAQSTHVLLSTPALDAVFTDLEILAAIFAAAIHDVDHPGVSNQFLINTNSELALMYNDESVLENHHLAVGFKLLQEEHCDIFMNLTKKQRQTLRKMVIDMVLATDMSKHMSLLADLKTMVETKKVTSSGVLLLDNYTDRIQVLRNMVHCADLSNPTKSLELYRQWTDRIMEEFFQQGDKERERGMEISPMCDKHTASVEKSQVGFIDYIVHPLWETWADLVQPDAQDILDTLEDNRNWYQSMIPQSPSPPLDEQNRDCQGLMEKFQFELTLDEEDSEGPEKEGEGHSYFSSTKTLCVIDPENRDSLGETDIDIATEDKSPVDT
Experiment: Inhibition of recombinant PDE4B2, Method B (SPA test)
Type: biochemical
Settings: 0.5 μM cAMP, read-out: PDE4 Inhibition [measured as −logIC50 (mol/l)] (converted)
Where a name gives a salt, the structure may show the parent alone.
Exercise: for every item that follows, state its recorded IC50.
One number for each entry, in nM.

Before answering, review these 4 worked examples.
COc1ccc(C2=NN(C3CCN(C(=O)CN4CCN(c5ccncc5)CC4)CC3)C(=O)CC2)cc1OC [Compound 29, dihydrochloride] = 15.8
COc1ccc(C2=NN(C3CCN(C(=O)CN4CCN(C(c5ccccc5)c5ccccc5)CC4)CC3)C(=O)CC2)cc1OC.Cl.Cl [Compound 31, dihydrochloride] = 39.8
COc1ccc(C2=NN(C3CCN(C(=O)c4ccccc4)CC3)C(=O)CC2)cc1OC [Compound 23] = 7.94
COc1ccc(C2=NN(C3CCN(CC(=O)N4CCN(C)CC4)CC3)C(=O)CC2)cc1OC.Cl.Cl [Compound 28, dihydrochloride] = 20

Prompt: I am curious: what IC50 value has been reported for COc1ccc(C2=NN(C3CCN(C(=O)c4c(Cl)cc(Cl)cc4Cl)CC3)C(=O)CC2)cc1OC [Compound 25] ?
Completion: 2.51

----------
Target: PDE3 (cGMP-inhibited) (Homo sapiens, UniProt Q14432)
Construct: investigated in homogenates of human platelets; from tissue; host or cells: homogenates of human platelets
Sequence (Q14432 whole entry): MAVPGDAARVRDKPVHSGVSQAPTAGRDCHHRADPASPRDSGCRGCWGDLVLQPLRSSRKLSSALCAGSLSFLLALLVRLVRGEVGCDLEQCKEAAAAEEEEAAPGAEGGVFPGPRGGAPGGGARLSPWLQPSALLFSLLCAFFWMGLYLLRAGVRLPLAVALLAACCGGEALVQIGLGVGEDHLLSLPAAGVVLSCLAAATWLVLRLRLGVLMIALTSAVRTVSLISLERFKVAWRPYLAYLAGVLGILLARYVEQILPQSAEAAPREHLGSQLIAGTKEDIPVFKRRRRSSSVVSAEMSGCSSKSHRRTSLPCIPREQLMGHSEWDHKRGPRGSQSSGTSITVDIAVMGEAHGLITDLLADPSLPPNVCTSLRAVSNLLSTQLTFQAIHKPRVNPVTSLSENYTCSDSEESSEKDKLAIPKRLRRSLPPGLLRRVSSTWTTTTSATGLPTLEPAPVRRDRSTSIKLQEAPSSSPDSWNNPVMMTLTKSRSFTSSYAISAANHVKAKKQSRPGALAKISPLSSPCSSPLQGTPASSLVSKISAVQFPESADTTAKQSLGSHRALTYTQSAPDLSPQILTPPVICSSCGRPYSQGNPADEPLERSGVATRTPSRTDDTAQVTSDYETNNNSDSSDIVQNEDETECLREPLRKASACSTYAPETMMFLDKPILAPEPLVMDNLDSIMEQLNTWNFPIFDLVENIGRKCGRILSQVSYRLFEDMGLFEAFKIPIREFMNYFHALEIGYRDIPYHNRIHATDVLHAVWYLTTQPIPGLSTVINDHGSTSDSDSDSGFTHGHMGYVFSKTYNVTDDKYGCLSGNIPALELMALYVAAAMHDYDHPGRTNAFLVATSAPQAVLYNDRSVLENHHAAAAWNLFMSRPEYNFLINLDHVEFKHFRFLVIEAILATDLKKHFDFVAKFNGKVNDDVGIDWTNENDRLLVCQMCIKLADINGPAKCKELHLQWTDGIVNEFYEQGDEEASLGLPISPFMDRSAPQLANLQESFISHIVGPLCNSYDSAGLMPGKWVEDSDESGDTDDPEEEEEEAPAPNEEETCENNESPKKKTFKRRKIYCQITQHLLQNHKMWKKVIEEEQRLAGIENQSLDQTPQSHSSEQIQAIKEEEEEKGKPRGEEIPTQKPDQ
Assay: Inhibition of PDE3 activity, Method A (homogenates of human platelets)
Assay type: biochemical
Conditions: read-out: PDE3 Inhibition [measured as −logIC50 (mol/l)] (converted)
Please respond with reported IC50 for every item in the list.

Some entries whose results are on file:
COc1ccc(C2=NN(C3CCN(CC(=O)N(C)C)CC3)C(=O)CC2)cc1OC.Cl [Compound 27, hydrochloride] = > 10 µM
COc1ccc(C2=NN(C3CCN(C(=O)N4CCN(C)CC4)CC3)C(=O)CC2)cc1OC.Cl [Compound 8, hydrochloride] = > 10 µM

Moving on to the next compound.
Prompt: Would you mind telling me what IC50 value was observed for `CCN1CCN(C(=O)N2CCC(N3N=C(c4ccc(OC)c(OC)c4)CCC3=O)CC2)C(=O)C1=O` ?
Completion: > 10 µM
